# testSystem: Transcription factor HES-1 (Mus musculus, UniProt P35428)
# Sequence (P35428 whole entry): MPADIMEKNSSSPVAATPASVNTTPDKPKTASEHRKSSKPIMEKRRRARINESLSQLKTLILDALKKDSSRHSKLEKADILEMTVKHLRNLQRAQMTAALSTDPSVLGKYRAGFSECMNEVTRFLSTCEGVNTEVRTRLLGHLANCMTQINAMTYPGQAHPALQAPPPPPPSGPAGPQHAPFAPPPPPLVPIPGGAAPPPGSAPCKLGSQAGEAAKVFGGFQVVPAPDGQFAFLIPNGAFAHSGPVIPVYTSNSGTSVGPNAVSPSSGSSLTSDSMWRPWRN
# testName: Inhibition of Cy3-labeled mouse recombinant Hes1 (3-281) dimer formation expressed in Escherichia coli by microplate-based assay
pIC50: −log10 of the molar value.
recordedMetric: pIC50

For orientation, consider the following solved cases.
C/C=C1/[C@H]2OC=C(C(=O)O)[C@H]1CC(=O)OC[C@H](c1ccc(O)c(O)c1)OC[C@H]1O[C@@H](O2)[C@H](O)[C@@H](O)[C@@H]1O    5.11
O=C(O)c1[nH]c(C(=O)O)c(-c2c[nH]c3ccccc23)c1-c1c[nH]c2ccccc12 [LYCOGALIC ACID A]    5.22

[I] CCCC(=O)/C=C/C1=C(O)C(=O)c2cc(O)c(O)cc2C1=O [LINDBLADIONE]
[II] COc1cc([C@@H]2c3c(cc(OC)c(O)c3OC)C[C@H](CO)[C@H]2CO[C@@H]2OC[C@@H](O)[C@H](O)[C@H]2O)cc(OC)c1O [NUDIPOSIDE]
[III] COc1cc([C@H]2c3c(cc(OC)c(O)c3OC)C[C@@H](CO)[C@@H]2CO[C@@H]2OC[C@@H](O)[C@H](O)[C@H]2O)cc(OC)c1O [LYONISIDE]
[IV] COC(=O)c1[nH]c(C(=O)OC)c(-c2c[nH]c3ccc(O)cc23)c1-c1c[nH]c2ccccc12 [LYCOGARUBIN B]
Sort ascending by pIC50. Returns: the labels listed in the requested order.
III, IV, II, I
